Each item that follows carries a reported MIC.
Tested on: Aspergillus fumigatus
test protocol: MIC measurement, YAG medium
Format: cell-based
conditions used: Aspergillus fumigatus; YAG medium; MIC banded into grades; strain AF293; read-out: MIC A. fumigatus

compound | MIC
C=C(C)CN1CCN(c2ccc(NC(=O)C(=O)c3c(-c4ccc(N5CCOCC5)cc4)cc4ccccn34)cc2)CC1 [Example 40] | > 10 µg/mL
O=C(Nc1ccc(N2CCC3(CC2)OCCO3)cc1)C(=O)c1c(-c2ccccc2)cc2ccccn12 [Example 23] | < 1 µg/mL
O=C(Nc1ccc(N2CCN(c3ccc(CN4CCOCC4)cn3)CC2)cc1)C(=O)c1c(-c2ccccc2)cc2ccccn12 [Example 77] | < 1 µg/mL
COCc1cc(NC(=O)C(=O)c2c(-c3ccccc3)cc3ccccn23)ccc1N1CCN(c2cc(C)cc(C)n2)CC1 [Example 81] | < 1 µg/mL
Cc1cc(C)nc(NCCNc2ccc(NC(=O)C(=O)c3c(-c4ccccc4)cc4ccccn34)cc2)c1 [Example 92] | < 1 µg/mL
Cc1cc(C)nc(N2CCN(c3ccc(NC(=O)C(=O)c4c(-c5ccccc5)cc5ccccn45)cc3)CC2)c1 [Example 21] | < 1 µg/mL
Cc1cc(NC(=O)C(=O)c2c(-c3ccccc3)cc3ccccn23)ccc1OCCCn1ccnc1C(C)C [Example 12] | 1 to 10 µg/mL

---

A set of compounds tested on Aspergillus niger, with measured MIC:

compound smiles | MIC
Cc1nc(C(C)C)cn1C(C)(C)c1cccc(NC(=O)C(=O)c2c(-c3ccccc3)cc3ccccn23)c1 | > 10 µg/mL
C[C@@H]1CN(C2CCN(c3ccc(NC(=O)C(=O)c4c(-c5ccccc5)cc5ccccn45)cc3)CC2)C[C@H](C)O1 | < 1 µg/mL
CCOCCN(C1=NC(C)(C)CO1)c1ccc(NC(=O)C(=O)c2c(-c3ccccc3)cc3ccccn23)cc1 | < 1 µg/mL
O=C(Nc1ccc(N2CCN(c3ccccn3)CC2)cc1)C(=O)c1c(-c2ccccc2)cc2ccc(F)cn12 | < 1 µg/mL

---

Measured MIC, listed per entry for reference.
Tested on: Aspergillus flavus
test protocol: MIC measurement, YAG medium
Assay type: cell-based
conditions used: Aspergillus flavus, MIC banded into grades, lowest concentration inhibiting growth by >70%
value type: MIC

compound smiles | experimental result
C=C1CCN(c2ccc(NC(=O)C(=O)c3c(-c4ccccc4)cc4ccccn34)cc2)CC1 | < 1 µg/mL
O=C(Nc1ccc(N2CCN(c3ccccn3)CC2)cc1)C(=O)c1c(-c2ccccc2)cc2ccccn12 | < 1 µg/mL
CCn1ccnc1Cc1ccc(NC(=O)C(=O)c2c(-c3ccccc3C)cc3ccccn23)cc1 | > 10 µg/mL
Cc1cc(N2CCN(c3ccc(NC(=O)C(=O)c4c(-c5ccccc5)cc5ccccn45)cc3)CC2)nc(C)n1 | < 1 µg/mL
O=C(Nc1ccc(N2CCN(Cc3ccco3)CC2)nc1)C(=O)c1c(-c2ccccc2)cc2ccccn12 | < 1 µg/mL
O=C(Nc1ccc(N2CCN(Cc3ccco3)CC2)cc1)C(=O)c1c(-c2ccccc2)cc2ccccn12 | < 1 µg/mL
C[C@@H]1CN(C2CCN(c3ccc(NC(=O)C(=O)c4c(-c5ccccc5)cc5ccccn45)cc3)CC2)C[C@H](C)O1 | < 1 µg/mL

---

// MIC lookup, one value per entry
System: Aspergillus fumigatus
test protocol: MIC measurement, YAG medium
Format: cell-based
conditions used: Aspergillus fumigatus; YAG medium; MIC banded into grades; strain AF293; read-out: MIC A. fumigatus

compound smiles | MIC
Cc1cc(C)nc(OCCOc2ccc(NC(=O)C(=O)c3c(-c4ccccc4)cc4ccccn34)cc2)c1 | < 1 µg/mL
CC(C)c1ncc(C(C)(C)c2ccc(NC(=O)C(=O)c3c(-c4ccccc4)cc4ccccn34)cc2)n1C | > 10 µg/mL
COCCOCCOc1cc(C)nc(N2CCN(c3ccc(NC(=O)C(=O)c4c(-c5ccccc5)cc5ccccn45)cc3)CC2)c1 | < 1 µg/mL
Cc1cc(C)nc(N2CCN(c3cccc(NC(=O)C(=O)c4c(-c5ccccc5)cc5ccccn45)c3)CC2)c1 | < 1 µg/mL
O=C(Nc1ccc(N2CCN(c3cc(OCCO)ccn3)CC2)cc1)C(=O)c1c(-c2ccccc2)cc2ccccn12 | 1 to 10 µg/mL
CS(=O)(=O)NC(=O)c1ccc(NC(=O)C(=O)c2c(-c3ccccc3)cc3ccccn23)cc1 | > 10 µg/mL
CC(C)(C)CN1CCN(c2ccc(NC(=O)C(=O)c3c(-c4ccccc4)cc4ccccn34)nc2)CC1 | < 1 µg/mL
CCOCCN(C1=NC(C)(C)CO1)c1ccc(NC(=O)C(=O)c2c(-c3ccccc3)cc3ccccn23)cc1 | 1 to 10 µg/mL
O=C(Nc1ccc(N2CCN(Cc3ccco3)CC2)nc1)C(=O)c1c(-c2ccccc2)cc2ccccn12 | < 1 µg/mL
O=C(Nc1ccc(C(=O)OC2CCOCC2)c(O)c1)C(=O)c1c(-c2ccccc2)cc2ccccn12 | < 1 µg/mL
Cc1cc(C)nc(N2CCN(c3ccc(NC(=O)C(=O)c4c(C(C)C)cc5ccccn45)cc3)CC2)c1 | < 1 µg/mL
Cc1cc(C)nc(N(C)CCCc2ccc(NC(=O)C(=O)c3c(-c4ccccc4)cc4ccccn34)cc2)c1 | < 1 µg/mL
O=C(Nc1ccc(NCCOc2ccccn2)cc1)C(=O)c1c(-c2ccccc2)cc2ccccn12 | < 1 µg/mL

Where do the numbers come from? From patent US8604029B2.
